# tested-on: cAMP-specific 3',5'-cyclic phosphodiesterase 4D (Homo sapiens, UniProt Q08499)
# Sequence (Q08499 whole entry): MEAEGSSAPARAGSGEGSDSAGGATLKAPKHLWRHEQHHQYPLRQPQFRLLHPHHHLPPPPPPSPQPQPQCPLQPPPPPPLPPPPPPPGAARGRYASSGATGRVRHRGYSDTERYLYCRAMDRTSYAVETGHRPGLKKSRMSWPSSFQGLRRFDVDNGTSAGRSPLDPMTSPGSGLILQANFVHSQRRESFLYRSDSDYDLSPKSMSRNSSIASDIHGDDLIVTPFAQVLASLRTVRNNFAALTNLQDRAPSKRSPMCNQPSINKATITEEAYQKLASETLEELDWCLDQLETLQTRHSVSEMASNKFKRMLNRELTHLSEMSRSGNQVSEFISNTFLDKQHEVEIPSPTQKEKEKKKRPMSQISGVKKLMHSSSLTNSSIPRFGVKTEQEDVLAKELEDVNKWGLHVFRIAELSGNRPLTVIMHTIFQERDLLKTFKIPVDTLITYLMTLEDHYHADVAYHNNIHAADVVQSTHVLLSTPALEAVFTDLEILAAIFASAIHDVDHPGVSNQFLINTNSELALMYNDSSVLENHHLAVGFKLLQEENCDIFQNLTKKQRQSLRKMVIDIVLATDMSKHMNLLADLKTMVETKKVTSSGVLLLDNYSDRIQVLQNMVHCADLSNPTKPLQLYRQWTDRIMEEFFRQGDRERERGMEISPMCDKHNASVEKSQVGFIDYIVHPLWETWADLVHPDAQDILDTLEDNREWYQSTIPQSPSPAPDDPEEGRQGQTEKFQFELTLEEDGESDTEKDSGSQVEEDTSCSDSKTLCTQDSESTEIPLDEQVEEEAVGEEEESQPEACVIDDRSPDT
pIC50: −log10 of the molar value.
The entries below come with measured pIC50 values attached.
measured-quantity: pIC50

• CCCC1CCc2c(sc(NC(=O)c3ccccc3[N+](=O)[O-])c2C(N)=O)C1 (configuration not stated) [tetrahydrobenzothiophene (THBT), 24] = 5.60
• Cc1cccc(C)c1C(=O)C1CCCc2sc(NC(=O)c3ccccc3[N+](=O)[O-])c(C(N)=O)c21 (configuration not stated) [tetrahydrobenzothiophene (THBT), 18] = 5.60

---

Observed pIC50 for cAMP-specific 3',5'-cyclic phosphodiesterase 4B (Homo sapiens), reported per entry below.
pIC50: −log10 of the molar value.
measured-quantity: pIC50

• Cc1cccc(C)c1C(=O)C1CCCc2sc(NC(=O)c3ccccc3[N+](=O)[O-])c(C(N)=O)c21 (configuration not stated) [tetrahydrobenzothiophene (THBT), 18] = 5.30
• CCCC1CCc2c(sc(NC(=O)c3ccccc3[N+](=O)[O-])c2C(N)=O)C1 (configuration not stated) [tetrahydrobenzothiophene (THBT), 24] = 7.00
